// compounds with reported IC50 on Cyclin-dependent kinase 2 (Homo sapiens, UniProt P24941), multi-publication
Just a reminder that ties go to label 0: only IC50 strictly below 0.5 µM counts as label 1.

IN: IC50 strictly < 0.5 µM for this compound? O=C(NNC(=S)Nc1cccc(F)c1)c1oc2ccccc2c1CN1CCN(c2ccccc2)CC1
OUT: label 1

IN: Does this compound meet the criterion IC50 < 0.5 µM? CN(C)S(=O)(=O)Cc1cccc(Nc2nc(OCC3CCCCC3)c3nc[nH]c3n2)c1
OUT: label 0

IN: Does the reported IC50 of O=C(NCCN1CCCCC1)Nc1ccc(Nc2nc(OCC3CCCCC3)c3nc[nH]c3n2)cc1 stay below 0.5 µM?
OUT: label 0

IN: is_below(IC50, 0.5 µM) for CNC(=O)c1cccc(Nc2nc(OCC3CCCCC3)c3nc[nH]c3n2)c1 ?
OUT: label 0

IN: is_below(IC50, 0.5 µM) for COc1ccc(-c2nn(-c3ccccc3)c3nccc(-c4ccccc4)c23)cc1 ?
OUT: label 0

IN: Identify whether the compound NS(=O)(=O)Cc1cccc(Nc2nc(OCC3CCCCC3)c3nc[nH]c3n2)c1 records IC50 below 0.5 µM.
OUT: label 1

IN: Please check: IC50 for O=C1Nc2ccc(Br)cc2C1=NNC(=O)c1cc2cc(Br)ccc2o1 , strictly under 0.5 µM or not?
OUT: label 1

IN: Please check: IC50 for CCN(CC)Cc1ccc(Nc2nccc(-c3cnn4ncccc34)n2)cc1 , strictly under 0.5 µM or not?
OUT: label 1

IN: Does the reported IC50 of the following compound sit strictly below 0.5 µM? O=C(NC1CCNCC1)c1n[nH]cc1Nc1ncnc2[nH]ccc12
OUT: label 1

IN: API: query returns whether the compound falls strictly under 0.5 µM in IC50. Query: O=C(Nc1ccc(N2CCNCC2)cn1)c1n[nH]cc1Nc1ncnc2sc3c(c12)CCCCC3
OUT: label 1

IN: State whether 0.5 µM exceeds IC50 recorded for Nc1cc(-c2c[nH]c3ccccc23)nn1-c1nc(Nc2ccc(Cl)cc2)nc(N2CCOCC2)n1 .
OUT: label 1

IN: Here's an entry: C(=C\N1CCCC1)/c1nc(Nc2ccccc2)nc2[nH]cnc12 . Is its IC50 below 0.5 µM?
OUT: label 0

IN: Does the reported IC50 of CCOc1nc(Nc2cccc(CC(=O)NCCCN(C)C)c2)nc2[nH]cnc12 stay below 0.5 µM?
OUT: label 0

IN: Below 0.5 µM on IC50? Entry CN(C)CCCCNC(=O)c1cccc(Nc2nc(OCC3CCCCC3)c3nc[nH]c3n2)c1
OUT: label 0

IN: Take the compound CCOC(=O)c1[nH]c2ccccc2c1/C=N/N=C/c1c(C(=O)OCC)[nH]c2ccccc12 and say whether its IC50 is less than 0.5 µM.
OUT: label 1

IN: Please indicate whether the reported IC50 of COc1ccc2c(c1)/C(=N\Nc1ncnc3[nH]cnc13)C(=O)N2 is strictly below 0.5 µM.
OUT: label 0

IN: Just wondering, is IC50 of Clc1ccc(Nc2cccc(-c3cn[nH]c3)c2)cc1 below 0.5 µM?
OUT: label 0

IN: Does this compound meet the criterion IC50 < 0.5 µM? O=C(Nc1ccc(N2CCNCC2)cc1)c1n[nH]cc1Nc1ncnc2sc3c(c12)CCC3
OUT: label 1
